- MEASUREMENT NOTES: chemical genetic growth profiling, strain panel (AID 1159580);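 further: tested at 20 µM; growth read once vehicle control cultures reached saturation at 30 °C; 1 = growth at the plate median or of vehicle wells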
- PARTICULARS: S. cerevisiae deletion strains, growth OD, locus YPR141C, strain kar3, stronger effect = lower value
Hit rate of the full screen: of about 5,500 compounds, about 2,000 (36%) were called active. Inconclusive results (about 18%) are left out. The list shows a part of the results.
VALUE TYPE: normalized growth

Take a look at these entries with their results.
                                   compound         value_type            result
0  OC[C@H]1O[C@@H](O[C@@H]2[C@@H](CO)O[C@](O)(CO)[C@H]2O)[C@H](O)[C@@H](O)[C@H]1O  normalized growth  0.968 (inactive)
1  OC[C@H]1O[C@@](CO)(O[C@@H]2O[C@H](CO)[C@@H](O)[C@H](O)[C@H]2O)[C@@H](O[C@@H]2O[C@H](CO)[C@@H](O)[C@H](O)[C@H]2O)[C@@H]1O  normalized growth   1.02 (inactive)
2  CC(N=C(NC#N)Nc1ccncc1)C(C)(C)C (centres undefined)  normalized growth   1.01 (inactive)
3        CCCN(CCC)S(=O)(=O)c1ccc(C(=O)O)cc1  normalized growth      1 (inactive)
4  OC[C@H]1O[C@@H](O[C@H]2[C@H](O)[C@@H](O)[C@@H](O)O[C@@H]2CO)[C@H](O)[C@@H](O)[C@@H]1O  normalized growth      1 (inactive)

Query string: What does the data say about its normalized growth? Entry: O=C(O)c1ccc(S(=O)(=O)N(Cl)Cl)cc1
Result string: 1.02 (inactive)

Query string: Now give it for CC(C)=CC1C(C(=O)O)C1(C)C (centres undefined) too.
Result string: 0.969 (inactive)

Query string: Now give it for CC(Cc1cccc(C(F)(F)F)c1)NCCOC(=O)c1ccccc1 (centres undefined) too.
Result string: 1.02 (inactive)

Query string: Now give it for CN(C)C(=O)Oc1cccc([N+](C)(C)C)c1 too.
Result string: 0.978 (inactive)

====

- MEASUREMENT NOTES: chemical genetic growth profiling, strain panel (AID 1159580);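 further: tested at 20 µM; growth read once vehicle control cultures reached saturation at 30 °C; 1 = growth at the plate median or of vehicle wells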
- PARTICULARS: S. cerevisiae deletion strains, growth OD, locus YMR129W, stronger effect = lower value
Hit rate of the full screen: of about 5,500 compounds, about 2,000 (36%) were called active. About 18% were inconclusive and are not listed. The list shows a part of the results.
VALUE TYPE: normalized growth
Would you mind answering with just the numeric figure?

Take a look at these entries with their results.
                                   compound         value_type  result
0  CC(C)=CC1C(C(=O)O)C1(C)C (stereo unspecified)  normalized growth   0.965
1                   CC(C)C[C@@H](CN)CC(=O)O  normalized growth    1.02
2   COc1ccccc1OCC(O)CO (stereo unspecified)  normalized growth    1.02
3  CN(C)[C@@H]1C(=O)C(C(=O)NCN2CCCC2)=C(O)[C@@]2(O)C(=O)C3=C(O)c4c(O)cccc4[C@@](C)(O)[C@H]3C[C@@H]12  normalized growth    1.01
4  CCN1CCN(C(=O)NC(C(=O)N[C@@H]2C(=O)N3[C@@H]2SC(C)(C)[C@@H]3C(=O)O)c2ccccc2)C(=O)C1=O (stereo partly specified)  normalized growth       1

// below: normalized growth requested for another compound
Query string: What does the data say about its normalized growth? Entry: CC1=CCCC2C1(C)CCC(C)C2(C)CC/C(C)=C/C[n+]1cn(C)c2c(N)ncnc21 (stereo unspecified)
Result string: 0.995

====

- MEASUREMENT NOTES: chemical genetic growth profiling, strain panel (AID 1159580);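 further: tested at 20 µM; growth read once vehicle control cultures reached saturation at 30 °C; 1 = growth at the plate median or of vehicle wells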
- PARTICULARS: S. cerevisiae deletion strains, growth OD, locus YOR083W, strain WHI5 (second series), stronger effect = lower value
In all, about 5,500 compounds went through this assay and about 2,000 (36%) were called active. Inconclusive results (about 18%) are left out. This is one part of the list.
// boundary case: normalized growth equal to 1 maps to Not satisfied; strictly smaller maps to Satisfied

Query string: A record lists CN(C)CCCN1c2ccccc2CCc2ccccc21 . Is its normalized growth below 1?
Result string: Not satisfied

Query string: Now give it for CCC1(O)CC2CN(CCc3c([nH]c4ccccc34)[C@@](C(=O)OC)(c3cc4c(cc3OC)N(C)C3[C@]45CCN4CC=C[C@@](CC)([C@@H](OC(C)=O)[C@]3(O)C(=O)OC)[C@H]45)C2)C1 (stereo partly specified) too.
Result string: Not satisfied

Query string: Now give it for CN(C)CCCN1c2ccccc2CCc2ccc(Cl)cc21 too.
Result string: Not satisfied

Query string: Now give it for CN(C)CCCN1c2ccccc2Sc2ccc(Cl)cc21 too.
Result string: Satisfied

Query string: Now give it for NNCc1cccc(O)c1 too.
Result string: Satisfied

Query string: Now give it for COc1ccc([C@@H]2Sc3ccccc3N(CCN(C)C)C(=O)[C@@H]2OC(C)=O)cc1 too.
Result string: Not satisfied

Query string: Now give it for NCCNS(=O)(=O)c1cccc2cnccc12 too.
Result string: Satisfied

Query string: Now give it for CNCCCC1c2ccccc2C=Cc2ccccc21 too.
Result string: Not satisfied

Query string: Now give it for CC(=O)N[C@@H](Cc1c[nH]c2ccccc12)C(=O)OCc1cc(C(F)(F)F)cc(C(F)(F)F)c1 too.
Result string: Not satisfied

====

- MEASUREMENT NOTES: chemical genetic growth profiling, strain panel (AID 1159580);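 further: tested at 20 µM; growth read once vehicle control cultures reached saturation at 30 °C; 1 = growth at the plate median or of vehicle wells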
- PARTICULARS: S. cerevisiae deletion strains, growth OD, locus YLR418C, strain cdc73
About 2,000 (36%) of roughly 5,500 compounds were called active. About 18% were inconclusive and are not listed. No stated cut-off is given here; in the data, active means normalized growth mostly below about 0.91 (no sharp cut-off); inconclusive means no clear call, values can overlap the other calls; inactive means mostly above about 0.92. The list shows a part of the results.
Use one of these outcomes when replying: 1 (yes) = active, 0 (no) = inactive

For orientation, consider the following solved cases.
>>> df
                                   compound  class_assignment
0  OC[C@H]1O[C@@H](O[C@@H]2[C@@H](CO)O[C@](O)(CO)[C@H]2O)[C@H](O)[C@@H](O)[C@H]1O            0 (no)
1  CC(C)=CC1C(C(=O)O)C1(C)C (stereo not given)            0 (no)
2                         Nc1ccc(C(=O)O)cc1            0 (no)
3                        C[n+]1ccccc1/C=N/O            0 (no)

Query string: Could you check what this test reported for COc1ccccc1OCC(O)CO (stereo not given) ?
Result string: 0 (no)

Query string: Now give it for CNNC too.
Result string: 0 (no)

Query string: Now give it for C=C1C[C@]23C[C@@]1(O)CC[C@H]2[C@@]12C=C[C@H](O)[C@@](C)(C(=O)O1)[C@H]2[C@@H]3C(=O)O too.
Result string: 0 (no)

Query string: Now give it for CN(C)CCCN1c2ccccc2CCc2ccc(Cl)cc21 too.
Result string: 1 (yes)

Query string: Now give it for C[C@H](CCC(=O)O)[C@H]1CCC2C3C(=O)CC4CC(=O)CC[C@]4(C)C3CC(=O)[C@@]21C (stereo not given in full) too.
Result string: 0 (no)

Query string: Now give it for CN(C)CCCN1c2ccccc2CCc2ccccc21 too.
Result string: 0 (no)

Query string: Now give it for CCCN(CCC)S(=O)(=O)c1ccc(C(=O)O)cc1 too.
Result string: 0 (no)

Query string: Now give it for CN(C)[C@@H]1C(=O)C(C(N)=O)=C(O)[C@@]2(O)C(=O)C3=C(O)c4c(O)ccc(Cl)c4[C@@H](O)[C@H]3C[C@@H]12 too.
Result string: 0 (no)

Query string: Now give it for C/C1=C\CC(C)(C)/C=C/CC2(C)OC2CC1 (stereo not given) too.
Result string: 0 (no)

Query string: Now give it for CS(=O)(=O)Nc1ccc([N+](=O)[O-])cc1Oc1ccccc1 too.
Result string: 0 (no)

Query string: Now give it for CN(C)CCCN1c2ccccc2Sc2ccc(C(F)(F)F)cc21 too.
Result string: 0 (no)

Query string: Now give it for CN(C)[C@@H]1C(=O)C(C(N)=O)=C(O)[C@@]2(O)C(=O)C3=C(O)c4c(O)cccc4[C@@](C)(O)[C@H]3[C@H](O)[C@@H]12 too.
Result string: 0 (no)

Query string: Now give it for OC[C@H]1O[C@@H](O[C@H]2[C@H](O)[C@@H](O)[C@@H](O)O[C@@H]2CO)[C@H](O)[C@@H](O)[C@@H]1O too.
Result string: 0 (no)

Query string: Now give it for OC[C@H]1O[C@@](CO)(O[C@@H]2O[C@H](CO)[C@@H](O)[C@H](O)[C@H]2O)[C@@H](O[C@@H]2O[C@H](CO)[C@@H](O)[C@H](O)[C@H]2O)[C@@H]1O too.
Result string: 0 (no)

Query string: Now give it for CN(C)c1ccc(O)c2c1C[C@H]1C[C@H]3[C@H](N(C)C)C(=O)C(C(N)=O)=C(O)[C@@]3(O)C(=O)C1=C2O too.
Result string: 0 (no)

Query string: Now give it for COc1cc(C/C=C/c2ccccc2)c(OC)cc1O too.
Result string: 0 (no)
